Give measured IC50 for each item. Keep answers brief.
system: HCT-116; experiment: Cytotoxicity against human HCT-116 cells assessed as reduction in cell viability incubated for 72 hrs by SRB assay; assay type: functional, cell-based; conditions: HCT-116, 72 h

State its IC50 for this compound: CSC(=O)c1c(C(C)C)cc(O)c(C)c1O[C@@H]1O[C@H](CO)[C@@H](O)[C@H](O)[C@H]1O
> 40 µM

Given CSC(=O)c1c(O)c(C)c(O)c(C)c1C(C)C , respond with its IC50.
3.9 µM

Provide measured IC50 value, entry: COc1c(C)c(O)c(C)c(C(C)C)c1C(=O)SC
> 40 µM

For the compound Cc1c(O)c(C)c(C(C)C)c(O[C@@H]2O[C@H](CO)[C@@H](O)[C@H](O)[C@H]2O)c1O , give its measured IC50 value.
> 40 µM

# return recorded IC50 for entry COC(=O)c1c(O)c(C)c(O)c(C)c1C(C)C
7.3 µM

Specify IC50 for CSC(=O)c1c(O[C@@H]2O[C@H](CO)[C@@H](O)[C@H](O)[C@H]2O)c(C)c(O)c(C)c1C(C)C and stop.
> 40 µM

Where do these numbers come from? They come from ChEMBL document CHEMBL5120911.
